Listed compounds paired with reported Papp A→B at 180 min
experiment: Evaluation of Caco-2 membrane permeability; details: human, Caco-2, pH 6.5, Permeability coefficient (Caco-2 Papp), Without 5 mM lauroyl-L-carnitine, FaSSIF/HBSS buffer pH 6.5 apical
Bridge positions count the residues as written; N and C are the ends. Square brackets hold non-standard residues; d marks the D form. Peptide text beside a SMILES is read from it. * marks the point of attachment. Ala(4-thiazolyl) = N[C@@H](Cc1cscn1)C(=O)O; NMeNle(6-CHF2) = CN[C@@H](CCCCC(F)F)C(=O)O; Phe(3-Cl) = N[C@@H](Cc1cccc(Cl)c1)C(=O)O; NMehPhe = CN[C@@H](CCc1ccccc1)C(=O)O; NMeF = CN[C@@H](Cc1ccccc1)C(=O)O; NMeD = CN[C@@H](CC(=O)O)C(=O)O; NMeS = CN[C@@H](CO)C(=O)O; Pip = O=C(O)[C@@H]1CCCCN1; Nle = CCCC[C@H](N)C(=O)O; Pyrrolidide = C1CCN(*)C1; dNMeA = CN[C@H](C)C(=O)O; Propyl = CCC*

compound: CC[C@H](C)[C@@H]1NC(=O)[C@H](Cc2ccccc2)N(C)C(=O)CN(C)C(=O)C[C@@H](C(=O)N2CCCCC2)NC(=O)[C@H](CC(C)C)N(C)C(=O)[C@H](COC(C)(C)C)NC(=O)[C@H](CC(C)C)N(C)C(=O)[C@H](CCc2ccccc2)N(C)C(=O)CN(C)C(=O)[C@H]([C@@H](C)O)NC(=O)[C@H](CC(C)C)N(C)C1=O (stereo in doubt)
qualifier-sign: <
Papp A→B at 180 min / nm/s: 0.944
--
compound: CC[C@H](C)[C@@H]1NC(=O)[C@H](Cc2ccccc2)N(C)C(=O)[C@H](Cc2cscn2)NC(=O)[C@@H](C)N(C)C(=O)C[C@@H](C(=O)N2CCCC2)NC(=O)[C@@H]2CCCN2C(=O)[C@H](CCCCC(F)F)N(C)C(=O)CNC(=O)[C@H](Cc2ccccc2)N(C)C(=O)[C@@H]2CCCN2C(=O)[C@H](CCc2ccccc2)N(C)C1=O [Compound 4] ([dNMeA][Ala(4-thiazolyl)][NMeF]I[NMehPhe]P[NMeF]G[NMeNle(6-CHF2)]PD-Pyrrolidide; lactam N-11)
qualifier-sign: <
Papp A→B at 180 min / nm/s: 0.107
--
compound: CC[C@H](C)[C@@H]1NC(=O)[C@H](CC(C)C)N(C)C(=O)CC(C(=O)N2CCOCC2)N(C)C(=O)[C@H](C2CCCC2)N(C)C(=O)C2(CCCC2)NC(=O)[C@@H]2CCCN2C(=O)[C@H](CCc2ccc(C(F)(F)F)c(Cl)c2)NC(=O)CN(C)C(=O)[C@H](C2CCCC2)N(C)C(=O)[C@@H]2CCN2C(=O)[C@H](C)NC1=O (single isomer, unassigned)
qualifier-sign: <
Papp A→B at 180 min / nm/s: 0.0976
--
compound: CC[C@H](C)[C@@H]1NC(=O)C(CC(C)C)N(C)C(=O)CC(C(=O)N(C)C)N(C)C(=O)[C@H](C2CCCC2)N(C)C(=O)C(C)NC(=O)C(C)N(C)C(=O)[C@H](CCc2ccc(C(F)(F)F)c(Cl)c2)NC(=O)CN(C)C(=O)[C@H](CC2CCCCC2)N(C)C(=O)[C@@H]2CCN2C(=O)[C@H](C)N(C)C1=O (single isomer, unassigned)
qualifier-sign: =
Papp A→B at 180 min / nm/s: 0.0949
--
compound: CC[C@H](C)[C@@H]1NC(=O)[C@H](CC(C)C)N(C)C(=O)CC(C(=O)N2CCOCC2)N(C)C(=O)[C@H](C2CCCC2)N(C)C(=O)C2(CCCC2)NC(=O)[C@@H]2CCCN2C(=O)[C@H](CCc2ccc(C(F)(F)F)c(Cl)c2)NC(=O)CN(C)C(=O)[C@H](CC2CCCCC2)N(C)C(=O)[C@@H]2CCN2C(=O)[C@H](C)N(C)C1=O (single isomer, unassigned)
qualifier-sign: =
Papp A→B at 180 min / nm/s: 0.491
--
compound: CC[C@H](C)[C@@H]1NC(=O)[C@H](CC(C)C)N(C)C(=O)CC(C(=O)N2CCCCC2)N(C)C(=O)[C@H](C2CCCC2)N(C)C(=O)C2(CCCC2)NC(=O)[C@@H]2CCCN2C(=O)[C@H](CCc2ccc(C(F)(F)F)c(Cl)c2)NC(=O)CN(C)C(=O)[C@H](CC2CCCCC2)N(C)C(=O)[C@@H]2CCN2C(=O)[C@H](C)N(C)C1=O (single isomer, unassigned)
qualifier-sign: =
Papp A→B at 180 min / nm/s: 0.42
--
compound: CCCC[C@@H]1NC(=O)[C@@H]2CCCN2C(=O)[C@H](CCCC)NC(=O)[C@@H](C)N(C)C(=O)C[C@@H](C(=O)N2CCCC2)N(C)C(=O)[C@@H]2CCCN2C(=O)[C@H]([C@@H](C)CC)NC(=O)[C@@H]2CCCCN2C(=O)[C@H](Cc2cccc(Cl)c2)NC(=O)[C@H](COCCC)N(C)C(=O)[C@H](Cc2ccccc2)N(C)C1=O [Compound 5] ([dNMeA][Nle]P[Nle][NMeF][NMeS](Propyl)[Phe(3-Cl)][Pip]IP[NMeD]-Pyrrolidide; lactam N-11)
qualifier-sign: =
Papp A→B at 180 min / nm/s: 0.0372

Value source: patent US20250302912A1
